B1: NLV2 TCR alpha chain (CDR3α only) (parent)
chain: AGPMKTSYDKVI
partner: NLVGMVATV

Variants of: B1
MEASUREMENT DESCRIPTION: T-Switch: Jurkat TCRβ−/− cells expressing a CDR3 saturation-mutagenesis library, stained with two peptide-HLA-A*02:01 tetramers (original and novel peptide) plus anti-CD3, FACS-sorted into four gates, gDNA sequenced
CONDITION INFO: with HLA-A*02:01 with peptide … (NLV 2-2, the original bait), tetramers 1 µg/mL, 30 min on ice, DP and SW gates expanded about 10 days between rounds ('two to three rounds of selection' in the Methods), gate SP: higher = more of the variant in the gate that binds the original peptide and not the novel one = retained original binding. Fold enrichment of the CDR3 variant in one FACS gate of a two-tetra, unresolved parent, parent is a CDR3 fragment, scale: fold enrichment, numbering: sequential-on-construct, sequence …
TEST READOUT: enrichment

| MUTANT CODE | RESULT |
| --- | --- |
| […] (CDR3 as printed); A1N derived by comparing it with the table's wild-type CDR3 AGPMKTSYDKVI | 0.476 |
| […] (CDR3 as printed); D9H derived by comparing it with the table's wild-type CDR3 AGPMKTSYDKVI | 0.283 |
| […] (CDR3 as printed); G2C derived by comparing it with the table's wild-type CDR3 AGPMKTSYDKVI | 0 |
| […] (CDR3 as printed); K10H derived by comparing it with the table's wild-type CDR3 AGPMKTSYDKVI | 0.422 |
| […] (CDR3 as printed); A1T derived by comparing it with the table's wild-type CDR3 AGPMKTSYDKVI | 0.262 |
| […] (CDR3 as printed); P3E derived by comparing it with the table's wild-type CDR3 AGPMKTSYDKVI | 0.526 |
| […] (CDR3 as printed); Y8G derived by comparing it with the table's wild-type CDR3 AGPMKTSYDKVI | 0 |
| […] (CDR3 as printed); K5H derived by comparing it with the table's wild-type CDR3 AGPMKTSYDKVI | 4.24 |
| […] (CDR3 as printed); S7D derived by comparing it with the table's wild-type CDR3 AGPMKTSYDKVI | 0 |
| […] (CDR3 as printed); K10D derived by comparing it with the table's wild-type CDR3 AGPMKTSYDKVI | 0 |
| […] (CDR3 as printed); K10N derived by comparing it with the table's wild-type CDR3 AGPMKTSYDKVI | 0 |
| […] (CDR3 as printed); M4P derived by comparing it with the table's wild-type CDR3 AGPMKTSYDKVI | 0 |
| […] (CDR3 as printed); D9Y derived by comparing it with the table's wild-type CDR3 AGPMKTSYDKVI | 0 |
| […] (CDR3 as printed); Y8I derived by comparing it with the table's wild-type CDR3 AGPMKTSYDKVI | 0 |
| […] (CDR3 as printed); P3D derived by comparing it with the table's wild-type CDR3 AGPMKTSYDKVI | 0 |
| […] (CDR3 as printed); A1L derived by comparing it with the table's wild-type CDR3 AGPMKTSYDKVI | 0 |
| […] (CDR3 as printed); P3L derived by comparing it with the table's wild-type CDR3 AGPMKTSYDKVI | 0 |
| […] (CDR3 as printed); K10T derived by comparing it with the table's wild-type CDR3 AGPMKTSYDKVI | 0 |
| […] (CDR3 as printed); G2I derived by comparing it with the table's wild-type CDR3 AGPMKTSYDKVI | 0 |
| […] (CDR3 as printed); Y8E derived by comparing it with the table's wild-type CDR3 AGPMKTSYDKVI | 0.105 |
| […] (CDR3 as printed); K10Q derived by comparing it with the table's wild-type CDR3 AGPMKTSYDKVI | 1.98 |
| […] (CDR3 as printed); S7A derived by comparing it with the table's wild-type CDR3 AGPMKTSYDKVI | 3.32 |
| […] (CDR3 as printed); K5Y derived by comparing it with the table's wild-type CDR3 AGPMKTSYDKVI | 0 |
| […] (CDR3 as printed); V11T derived by comparing it with the table's wild-type CDR3 AGPMKTSYDKVI | 0 |
| […] (CDR3 as printed); G2F derived by comparing it with the table's wild-type CDR3 AGPMKTSYDKVI | 0 |
| […] (CDR3 as printed); V11S derived by comparing it with the table's wild-type CDR3 AGPMKTSYDKVI | 1.91 |
| […] (CDR3 as printed); M4W derived by comparing it with the table's wild-type CDR3 AGPMKTSYDKVI | 0 |
| […] (CDR3 as printed); I12Q derived by comparing it with the table's wild-type CDR3 AGPMKTSYDKVI | 0 |
| […] (CDR3 as printed); M4L derived by comparing it with the table's wild-type CDR3 AGPMKTSYDKVI | 0 |
| […] (CDR3 as printed); I12P derived by comparing it with the table's wild-type CDR3 AGPMKTSYDKVI | 0 |
| […] (CDR3 as printed); T6S derived by comparing it with the table's wild-type CDR3 AGPMKTSYDKVI | 0 |
| […] (CDR3 as printed); M4I derived by comparing it with the table's wild-type CDR3 AGPMKTSYDKVI | 18.9 |
| […] (CDR3 as printed); V11N derived by comparing it with the table's wild-type CDR3 AGPMKTSYDKVI | 0 |
| […] (CDR3 as printed); S7V derived by comparing it with the table's wild-type CDR3 AGPMKTSYDKVI | 0 |
| […] (CDR3 as printed); M4C derived by comparing it with the table's wild-type CDR3 AGPMKTSYDKVI | 0 |
| […] (CDR3 as printed); S7Y derived by comparing it with the table's wild-type CDR3 AGPMKTSYDKVI | 0 |
| […] (CDR3 as printed); M4K derived by comparing it with the table's wild-type CDR3 AGPMKTSYDKVI | 0.788 |
| […] (CDR3 as printed); A1Y derived by comparing it with the table's wild-type CDR3 AGPMKTSYDKVI | 0.416 |
| […] (CDR3 as printed); P3T derived by comparing it with the table's wild-type CDR3 AGPMKTSYDKVI | 0 |
| […] (CDR3 as printed); V11W derived by comparing it with the table's wild-type CDR3 AGPMKTSYDKVI | 0 |
| […] (CDR3 as printed); I12Y derived by comparing it with the table's wild-type CDR3 AGPMKTSYDKVI | 0 |
| […] (CDR3 as printed); V11E derived by comparing it with the table's wild-type CDR3 AGPMKTSYDKVI | 0 |
| […] (CDR3 as printed); K5W derived by comparing it with the table's wild-type CDR3 AGPMKTSYDKVI | 5.12 |
| […] (CDR3 as printed); K5M derived by comparing it with the table's wild-type CDR3 AGPMKTSYDKVI | 4.77 |
| […] (CDR3 as printed); A1S derived by comparing it with the table's wild-type CDR3 AGPMKTSYDKVI | 0.551 |
| […] (CDR3 as printed); T6L derived by comparing it with the table's wild-type CDR3 AGPMKTSYDKVI | 0 |
| […] (CDR3 as printed); K10G derived by comparing it with the table's wild-type CDR3 AGPMKTSYDKVI | 0 |
| […] (CDR3 as printed); I12G derived by comparing it with the table's wild-type CDR3 AGPMKTSYDKVI | 0 |
| […] (CDR3 as printed); T6Y derived by comparing it with the table's wild-type CDR3 AGPMKTSYDKVI | 0 |
| […] (CDR3 as printed); A1I derived by comparing it with the table's wild-type CDR3 AGPMKTSYDKVI | 0.473 |
| […] (CDR3 as printed); A1F derived by comparing it with the table's wild-type CDR3 AGPMKTSYDKVI | 2.07 |
| […] (CDR3 as printed); K5P derived by comparing it with the table's wild-type CDR3 AGPMKTSYDKVI | 9.21 |
| […] (CDR3 as printed); K5S derived by comparing it with the table's wild-type CDR3 AGPMKTSYDKVI | 4.22 |
| […] (CDR3 as printed); D9E derived by comparing it with the table's wild-type CDR3 AGPMKTSYDKVI | 0 |
| […] (CDR3 as printed); A1M derived by comparing it with the table's wild-type CDR3 AGPMKTSYDKVI | 0.103 |
| […] (CDR3 as printed); I12S derived by comparing it with the table's wild-type CDR3 AGPMKTSYDKVI | 0 |
| […] (CDR3 as printed); M4R derived by comparing it with the table's wild-type CDR3 AGPMKTSYDKVI | 0 |
| […] (CDR3 as printed); A1Q derived by comparing it with the table's wild-type CDR3 AGPMKTSYDKVI | 0 |
| […] (CDR3 as printed); K5G derived by comparing it with the table's wild-type CDR3 AGPMKTSYDKVI | 12.9 |
| […] (CDR3 as printed); T6A derived by comparing it with the table's wild-type CDR3 AGPMKTSYDKVI | 0 |
| […] (CDR3 as printed); D9P derived by comparing it with the table's wild-type CDR3 AGPMKTSYDKVI | 0 |
| […] (CDR3 as printed); Y8D derived by comparing it with the table's wild-type CDR3 AGPMKTSYDKVI | 0 |
| […] (CDR3 as printed); G2H derived by comparing it with the table's wild-type CDR3 AGPMKTSYDKVI | 0 |
| […] (CDR3 as printed); I12N derived by comparing it with the table's wild-type CDR3 AGPMKTSYDKVI | 0.107 |
| […] (CDR3 as printed); P3N derived by comparing it with the table's wild-type CDR3 AGPMKTSYDKVI | 0.173 |
| […] (CDR3 as printed); K5A derived by comparing it with the table's wild-type CDR3 AGPMKTSYDKVI | 23.5 |
| […] (CDR3 as printed); S7R derived by comparing it with the table's wild-type CDR3 AGPMKTSYDKVI | 0 |
| […] (CDR3 as printed); P3H derived by comparing it with the table's wild-type CDR3 AGPMKTSYDKVI | 0 |
| […] (CDR3 as printed); Y8S derived by comparing it with the table's wild-type CDR3 AGPMKTSYDKVI | 0 |
| […] (CDR3 as printed); G2W derived by comparing it with the table's wild-type CDR3 AGPMKTSYDKVI | 0 |
| […] (CDR3 as printed); G2V derived by comparing it with the table's wild-type CDR3 AGPMKTSYDKVI | 0 |
| […] (CDR3 as printed); I12C derived by comparing it with the table's wild-type CDR3 AGPMKTSYDKVI | 0 |
| […] (CDR3 as printed); Y8C derived by comparing it with the table's wild-type CDR3 AGPMKTSYDKVI | 0 |
| […] (CDR3 as printed); K10P derived by comparing it with the table's wild-type CDR3 AGPMKTSYDKVI | 0 |
| […] (CDR3 as printed); T6M derived by comparing it with the table's wild-type CDR3 AGPMKTSYDKVI | 0 |
| […] (CDR3 as printed); P3V derived by comparing it with the table's wild-type CDR3 AGPMKTSYDKVI | 0.124 |
| […] (CDR3 as printed); K10V derived by comparing it with the table's wild-type CDR3 AGPMKTSYDKVI | 0 |
| […] (CDR3 as printed); Y8N derived by comparing it with the table's wild-type CDR3 AGPMKTSYDKVI | 0 |
| […] (CDR3 as printed); A1K derived by comparing it with the table's wild-type CDR3 AGPMKTSYDKVI | 0 |
| […] (CDR3 as printed); K10M derived by comparing it with the table's wild-type CDR3 AGPMKTSYDKVI | 0 |
| […] (CDR3 as printed); P3Q derived by comparing it with the table's wild-type CDR3 AGPMKTSYDKVI | 0 |
| […] (CDR3 as printed); V11G derived by comparing it with the table's wild-type CDR3 AGPMKTSYDKVI | 0 |
| […] (CDR3 as printed); M4V derived by comparing it with the table's wild-type CDR3 AGPMKTSYDKVI | 18.1 |
